B1: POU domain, class 3, transcription factor 4, residues 280 to 335; numbered along this chain, P49335 (parent)
chain: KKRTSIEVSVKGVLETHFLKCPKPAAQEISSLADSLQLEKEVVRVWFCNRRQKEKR

- Variants of: B1
- assayComment: abundance fitness (aPCA) (normalised: wild type 0, dead -1); higher = more abundant; growth selection in yeast, the domain comes from the species named
- experimentalSetup: Homo sapiens
As shown below, each of these variants has a reported abundance fitness value.

Consider the following illustrative entries.
R3Q = -0.354
A25M = -0.073
K2E = -0.526
S9C = -0.017

Query :: What value of measured abundance fitness is listed for "S31C" ?
Result :: -0.414

Query :: What value of measured abundance fitness is listed for "A26M" ?
Result :: 0.108
